From: patent US20250171459A1

- Tested Target: UniProtKB O14791
- Sequence (O14791 1-398 S342G/I384M): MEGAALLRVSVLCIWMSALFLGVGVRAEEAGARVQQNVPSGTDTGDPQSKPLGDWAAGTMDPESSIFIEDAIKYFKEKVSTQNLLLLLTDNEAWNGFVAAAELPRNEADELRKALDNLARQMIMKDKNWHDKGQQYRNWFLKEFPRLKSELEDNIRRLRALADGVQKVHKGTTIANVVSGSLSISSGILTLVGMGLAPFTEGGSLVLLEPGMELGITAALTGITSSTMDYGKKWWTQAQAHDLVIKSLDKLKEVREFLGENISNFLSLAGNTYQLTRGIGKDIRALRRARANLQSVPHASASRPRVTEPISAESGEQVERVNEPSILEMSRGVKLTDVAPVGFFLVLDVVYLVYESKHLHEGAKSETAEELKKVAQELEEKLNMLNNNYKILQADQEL
- Assay Overview: MultiTox-Fluor Multiplex Cytotoxicity Assay in tet-inducible APOL1 T-REx-HEK293 cells (cell rescue, ratio of dead to live cells)
- Experimental Setup: tet-inducible transgenic APOL1 T-REx-HEK293 cell lines, 50 ng/mL tet, 24 hours; read-out: IP50 (i.e., IC50 for cell proliferation)
Readout: IC50

// solved cases for IC50 follow
CCc1cc2c(s1)CCO[C@@]21CCN(C[C@H]2C[C@@H](NC(=O)CCN3CCCC3=O)C2)[C@@H](C)C1 [Compound 366]; 100 to 500 nM
CCc1cc2c(s1)CCO[C@@]21CCN(C[C@H]2C[C@@H](NS(=O)(=O)c3cccc(OC)c3)C2)[C@@H](C)C1 [Compound 396]; < 100 nM
Cc1cc(CN2CC[C@]3(C[C@@H]2C)OC[C@H](O)c2cc(Cl)sc23)nn1C [Compound 781]; 500 to 1000 nM

We next turn to a different compound, shown below.
Qu. Returns the measured IC50 for the input compound. Input: C[C@H]1C[C@@]2(CCN1C1CCCC1O)OCCc1cc(C(F)(F)F)sc12 (stereo partly shown) [Compound 865]
Ans. 100 to 500 nM

* * *

- Tested Target: APOL1 (Homo sapiens, UniProt O14791)
- Sequence (O14791 1-398 S342G/I384M): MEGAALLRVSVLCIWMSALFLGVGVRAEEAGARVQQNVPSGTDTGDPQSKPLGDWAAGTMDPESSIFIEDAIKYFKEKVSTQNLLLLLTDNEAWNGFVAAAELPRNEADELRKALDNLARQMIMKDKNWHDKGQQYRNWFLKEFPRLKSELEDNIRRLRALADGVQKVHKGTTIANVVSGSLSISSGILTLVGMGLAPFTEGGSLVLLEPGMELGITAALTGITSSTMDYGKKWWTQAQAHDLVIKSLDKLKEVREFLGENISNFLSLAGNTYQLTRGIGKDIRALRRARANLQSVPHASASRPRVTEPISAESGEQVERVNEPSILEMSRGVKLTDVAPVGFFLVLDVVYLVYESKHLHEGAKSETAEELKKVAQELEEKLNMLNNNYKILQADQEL
- Assay Overview: MultiTox-Fluor Multiplex Cytotoxicity Assay in tet-inducible APOL1 T-REx-HEK293 cells (cell rescue, ratio of dead to live cells)
- Experimental Setup: tet-inducible transgenic APOL1 T-REx-HEK293 cell lines, 50 ng/mL tet, 24 hours; read-out: IP50 (i.e., IC50 for cell proliferation)
# IC50 annotations

Cc1cc2c(s1)[C@]1(CCN(Cc3cnn(CC(C)(CO)CO)c3)[C@@H](C)C1)OCC2; < 100 nM
CCc1cc2c(s1)CCOC21CCN(CC2CCN(S(C)(=O)=O)CC2)CC1; 500 to 1000 nM
C[C@H]1C[C@@]2(CCN1Cc1cnn(CCO)c1)OCCc1c2sc(C(F)(F)F)c1CO; < 100 nM

Qu. # IC50 lookup, item C[C@H]1C[C@@]2(CCN1Cc1cnn(CCC(N)=O)c1)OCCc1c2sc(C(F)(F)F)c1CO
Ans. < 100 nM

Qu. What does the data say about its IC50? Entry: CCc1cc2c(s1)CCO[C@@]21CCN(Cc2cn(CCN(CCO)CCO)nn2)[C@@H](C)C1
Ans. 100 to 500 nM

Qu. # lookup: IC50 of CCc1cc2c(s1)CCO[C@@]21CCN(Cc2cn(C3C[C@@H](CO)NC3=O)nn2)[C@@H](C)C1 (some centres unmarked)
Ans. 500 to 1000 nM

Qu. Consider the compound C[C@H]1C[C@@]2(CCN1Cc1ccnnc1)OCCc1cc(CC(F)F)sc12 and give its measured IC50.
Ans. < 100 nM

Qu. Need IC50 of CCCc1cc2c(s1)CCO[C@@]21CCN(Cc2cn(CCS(C)(=O)=O)nn2)[C@@H](C)C1 , thanks.
Ans. 100 to 500 nM

* * *

- Tested Target: APOL1 (Homo sapiens)
- Assay Overview: MultiTox-Fluor Multiplex Cytotoxicity Assay in tet-inducible APOL1 T-REx-HEK293 cells (cell rescue, ratio of dead to live cells)
- Experimental Setup: tet-inducible transgenic APOL1 T-REx-HEK293 cell lines, 50 ng/mL tet, 24 hours; read-out: IP50 (i.e., IC50 for cell proliferation)
pIC50: −log10 of the molar value.
# pIC50 annotations

CCc1cc2c(s1)CCOC21CCN(Cc2ccncc2)CC1; 6.00 to 6.30
CCc1cc2c(s1)CCOC21CCN(Cc2ccc(NC3CN(S(C)(=O)=O)C3)nc2)[C@@H](C)C1 (stereo partly drawn); > 7.00
CCc1cc2c(s1)CCO[C@@]21CCN(Cc2cn(CC(=O)NC3CC3)nn2)[C@@H](C)C1; > 7.00
CCc1cc2c(s1)CCOC21CCN(Cc2cncnc2)CC1; 6.00 to 6.30
C[C@H]1C[C@@]2(CCN1Cc1nccn1C)OCCc1cc(CC(F)F)sc12; 6.00 to 6.30

Qu. Tell me the measured pIC50 of CNC(=O)[C@H](O)Cn1cc(CN2CC[C@]3(C[C@@H]2C)OC[C@@H](O)c2cc(C(F)(F)F)sc23)cn1 , please.
Ans. 6.30 to 7.00

Qu. Requested field: pIC50. Item: CCc1cc2c(s1)CCO[C@@]21CCN(C[C@H]2C[C@@H](NC(=O)C3(O)CC3)C2)[C@@H](C)C1
Ans. > 7.00

Qu. Requested read-out: pIC50. Entry: C[C@H]1C[C@@]2(CCN1Cc1cnn(CC(O)C(C)(C)O)c1)OCC(O)(C(F)F)c1cc(Cl)sc12 (stereo in doubt)
Ans. > 7.00

Qu. Form field: reported pIC50 of CCc1cc2c(s1)CCO[C@@]21CCN(CC2CN(C(=O)CCS(C)(=O)=O)C2)[C@@H](C)C1
Ans. 6.30 to 7.00

* * *

- Tested Target: APOL1 (Homo sapiens, UniProt O14791)
- Assay Overview: MultiTox-Fluor Multiplex Cytotoxicity Assay in tet-inducible APOL1 T-REx-HEK293 cells (cell rescue, ratio of dead to live cells)
- Experimental Setup: tet-inducible transgenic APOL1 T-REx-HEK293 cell lines, 50 ng/mL tet, 24 hours; read-out: IP50 (i.e., IC50 for cell proliferation)
pIC50: −log10 of the molar value.
Readout: pIC50

C[C@H]1C[C@@]2(CCN1Cc1cn(CCS(C)(=O)=O)nn1)OCCc1sc(Cl)cc12; > 7.00
C[C@H]1C[C@@]2(CCN1Cc1cn(C3CCOCC3)nn1)OCCc1cc(CC(F)F)sc12; > 7.00
CCc1cc2c(s1)CCO[C@@]21CCN(Cc2cn([C@H]3C[C@H](O)C3)nn2)[C@@H](C)C1; > 7.00
Cc1cc(CN2CC[C@]3(C[C@@H]2C)OCCc2cc(CC(F)F)sc23)no1; > 7.00
C[C@H]1C[C@@]2(CCN1Cc1cn(C(C)(C)CO)nn1)OCCc1cc(CC(F)F)sc12; 6.00 to 6.30
CCc1cc2c(s1)CCOC21CCN(Cc2cnn(C)c2)C(C)(C)C1 (centres unmarked); 6.00 to 6.30
C[C@H]1C[C@@]2(CCN1Cc1cccc(OCCO)c1)OCCc1c2sc(Cl)c1CO; 6.30 to 7.00

// moving on: another record for pIC50
Qu. Return reported pIC50; argument: C[C@H]1C[C@@]2(CCN1CCCn1cccn1)OC[C@H](O)c1cc(Cl)sc12
Ans. 6.00 to 6.30

* * *

- Tested Target: APOL1 (Homo sapiens)
- Sequence (O14791 1-398 S342G/I384M): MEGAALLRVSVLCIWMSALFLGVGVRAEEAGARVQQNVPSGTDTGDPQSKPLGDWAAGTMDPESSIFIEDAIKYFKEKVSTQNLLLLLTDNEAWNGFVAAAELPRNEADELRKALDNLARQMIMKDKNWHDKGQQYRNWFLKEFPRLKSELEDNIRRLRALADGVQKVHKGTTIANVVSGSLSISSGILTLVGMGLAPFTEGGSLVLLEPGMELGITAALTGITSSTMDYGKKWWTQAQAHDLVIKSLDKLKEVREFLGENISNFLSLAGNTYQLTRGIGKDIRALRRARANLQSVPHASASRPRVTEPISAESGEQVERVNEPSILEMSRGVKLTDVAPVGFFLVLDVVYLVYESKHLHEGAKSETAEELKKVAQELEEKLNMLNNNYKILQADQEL
- Assay Overview: MultiTox-Fluor Multiplex Cytotoxicity Assay in tet-inducible APOL1 T-REx-HEK293 cells (cell rescue, ratio of dead to live cells)
- Experimental Setup: tet-inducible transgenic APOL1 T-REx-HEK293 cell lines, 50 ng/mL tet, 24 hours; read-out: IP50 (i.e., IC50 for cell proliferation)
- Procedure: The MultiTox-Fluor Multiplex Cytotoxicity Assay is a single-reagent-addition, homogeneous, fluorescence assay that measures the number of live and dead cells simultaneously in culture wells. […] The MultiTox reagent was added to each well and placed back in the incubator for an additional 30 minutes. The plate was read on the EnVision plate reader. A ratio of dead to live cells was used to normalize, and data was imported, analyzed, and fit using Genedata Screener (Basel, Switzerland) software. […]
pIC50: −log10 of the molar value.
Measured pIC50, listed per entry.

Qu. Which measured pIC50 value corresponds to C[C@H]1C[C@@]2(CCN1Cc1ccc(N3CCCC3=O)cc1)OCCc1cc(Cl)sc12 ?
Ans. > 7.00

Qu. Which pIC50 is reported for this molecule? CC(=CC(O)Cn1cc(CN2CC[C@]3(C[C@@H]2C)OC[C@@H](O)c2cc(C(F)(F)F)sc23)cn1)C1CC1 (stereo partly drawn)
Ans. 6.30 to 7.00

Qu. Consider the molecule CCc1cc2c(s1)CCO[C@@]21CCN(Cc2cn(CC(C)COC)nn2)[C@@H](C)C1 (stereo partly drawn) and give its measured pIC50.
Ans. 6.30 to 7.00

Qu. Given the entry CNC(=O)c1cccc(CN2CC[C@]3(C[C@@H]2C)OC[C@H](O)c2cc(Cl)sc23)c1 , report its measured pIC50.
Ans. 6.30 to 7.00

Qu. Which pIC50 reading was recorded for the molecule CCc1cc2c(s1)CCO[C@@]21CCN(C[C@H]2C[C@@H](NC(=O)Oc3ccc(OC)cc3)C2)[C@@H](C)C1 ?
Ans. > 7.00

Qu. Value lookup for pIC50; key = Cc1ncccc1CN1CC[C@]2(C[C@@H]1C)OCCc1cc(Cl)sc12
Ans. 6.00 to 6.30

Qu. Looking for the measured pIC50 of CCc1cc2c(s1)CCO[C@@]21CCN(C[C@H]2C[C@@H](NC(=O)C3CCC3(F)F)C2)[C@@H](C)C1 (stereo partly drawn) , can you help?
Ans. > 7.00

Qu. May I ask what pIC50 has been recorded for CCc1cc2c(s1)CCOC21CCN(Cc2ccc(NS(=O)(=O)CCCO)cc2)CC1 ?
Ans. > 7.00

Qu. So what does the record say about pIC50 for CCc1cc2c(s1)CCO[C@@]21CCN(CC2(O)CCOCC2)[C@@H](C)C1 ?
Ans. 6.30 to 7.00

Qu. GET /values?readout=pIC50&item= CCc1cc2c(s1)CCO[C@@]21CCN(Cc2cn(CCN3CCS(=O)(=O)CC3)nn2)[C@@H](C)C1
Ans. 6.00 to 6.30

Qu. Which pIC50 value belongs to C[C@H]1C[C@@]2(CCN1Cc1cnn(CC(C)(C)O)c1)OCCc1c2sc(C(F)(F)F)c1CO ?
Ans. > 7.00

Qu. Suppose we examine the molecule C[C@H]1C[C@@]2(CCN1Cc1cnn(CC(C)(CO)CO)c1)OCCc1c2sc(C(F)(F)F)c1CO ; what pIC50 value has been reported?
Ans. > 7.00

Qu. So what does the record say about pIC50 for CCc1cc2c(s1)CCO[C@@]21CCN(C[C@H]2C[C@@H](NC(=O)[C@@H]3CCCO3)C2)[C@@H](C)C1 ?
Ans. 6.30 to 7.00

Qu. Given the entry C[C@H]1C[C@@]2(CCN1C1COCC1O)OCCc1cc(C(F)(F)F)sc12 (stereo partly drawn) , report its measured pIC50.
Ans. 6.30 to 7.00

Qu. Quick check: pIC50 of C[C@H]1C[C@@]2(CCN1C[C@H](O)C(=O)N(C)C)OCCc1cc(Cl)sc12 ?
Ans. 6.30 to 7.00

Qu. Suppose we examine the molecule COc1ncc(CN2CC[C@]3(C[C@@H]2C)OC[C@H](O)c2cc(Cl)sc23)cn1 ; what pIC50 value has been reported?
Ans. 6.30 to 7.00

Qu. # lookup: pIC50 of CCc1cc2c(s1)CCO[C@@]21CCN(Cc2cn(C3CN(S(=O)(=O)C4CC4)C3)nn2)[C@@H](C)C1
Ans. > 7.00

Qu. Which pIC50 is listed for CCc1cc2c(s1)CCO[C@@]21CCN(CC2CN(C(=O)c3cc(CO)n[nH]3)C2)[C@@H](C)C1 ?
Ans. > 7.00

Qu. Could you share which pIC50 value was measured for COC(=O)N[C@H]1C[C@@H](CN2CC[C@]3(C[C@@H]2C)OCCc2cc(CC(F)F)sc23)C1 ?
Ans. > 7.00

Qu. Please report the recorded pIC50 for CCc1cc2c(s1)CCO[C@@]21CCN(Cc2cn(C(C)(C)CS(C)(=O)=O)nn2)[C@@H](C)C1 .
Ans. 6.00 to 6.30
